Entries and their koff
Target desc: T1, human CD33 extracellular domain (human, UniProt P20138 18-259)
T1 construct: soluble monomeric ECD; also called human CD33 ECD; hCD33
Assay procedure: SPR, Fab captured, 37C;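 note: surface plasmon resonance with Fabs captured on anti-Fab surface, soluble monomeric CD33 as analyte at several concentrations, double-referenced 1:1 model fit, KD as koff/kon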

[[record]]
binder = "ADI-10159 Fab (Fab, V domains shown, Fab fragment; also called Ab1; G59) VH: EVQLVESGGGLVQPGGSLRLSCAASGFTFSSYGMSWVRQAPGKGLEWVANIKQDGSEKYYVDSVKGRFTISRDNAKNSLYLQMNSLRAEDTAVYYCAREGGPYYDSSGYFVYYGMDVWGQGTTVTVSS VL: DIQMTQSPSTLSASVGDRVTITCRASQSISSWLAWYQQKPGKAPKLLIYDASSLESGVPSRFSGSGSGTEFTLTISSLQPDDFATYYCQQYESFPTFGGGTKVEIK"
measure_name = "koff"
result = "0.00195 s⁻¹"


# next binder below
Sample ADI-11809 Fab (Fab, V domains shown, Fab fragment; also called Ab6) VH: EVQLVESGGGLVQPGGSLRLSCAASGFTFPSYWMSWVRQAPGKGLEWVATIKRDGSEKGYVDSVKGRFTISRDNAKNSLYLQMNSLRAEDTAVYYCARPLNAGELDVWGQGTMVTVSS VL: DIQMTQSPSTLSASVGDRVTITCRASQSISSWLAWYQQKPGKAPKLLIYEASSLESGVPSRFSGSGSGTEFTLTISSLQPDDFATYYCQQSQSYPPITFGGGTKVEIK ; koff observed: 1.23e-06 s⁻¹

Data provenance is patent US20220380459A1.
